All figures here come from ChEMBL document CHEMBL4028808.

# system: Cyclin-dependent kinase 8 (Homo sapiens, UniProt P49336)
# Sequence (P49336 whole entry): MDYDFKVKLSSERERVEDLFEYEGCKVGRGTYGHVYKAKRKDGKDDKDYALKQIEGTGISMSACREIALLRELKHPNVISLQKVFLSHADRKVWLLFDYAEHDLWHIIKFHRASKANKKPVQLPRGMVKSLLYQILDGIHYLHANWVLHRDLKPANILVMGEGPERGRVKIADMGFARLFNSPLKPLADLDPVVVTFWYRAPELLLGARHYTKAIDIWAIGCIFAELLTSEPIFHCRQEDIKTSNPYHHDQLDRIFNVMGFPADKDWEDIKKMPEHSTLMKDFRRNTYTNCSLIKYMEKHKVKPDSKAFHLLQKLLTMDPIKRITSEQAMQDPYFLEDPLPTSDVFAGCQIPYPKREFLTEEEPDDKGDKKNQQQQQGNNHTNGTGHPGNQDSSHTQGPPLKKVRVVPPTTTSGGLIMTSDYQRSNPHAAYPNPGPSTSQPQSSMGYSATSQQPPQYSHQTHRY
# method.description: Inhibition of CDK8 in human SW480 cells assessed as decrease in STAT1 phosphorylation at Ser727 after 2 hrs by Western blot method
test.readout: EC50 (µM)
The figure you give is taken to be in µM; do not add the unit.

For this compound ( Cc1ncccc1Oc1sc(C(N)=O)c2c1-c1sncc1CC2 ), measured EC50 is 0.002

For this compound ( CSc1sc(C(N)=O)c2c1-c1c(cnn1C)CC2 ), measured EC50 is 0.025

For this compound ( CC(C)(O)CNC(=O)c1ccc(Oc2sc(C(N)=O)c3c2-c2sncc2CC3)cn1 ), measured EC50 is 0.0074

For this compound ( CSc1sc(C(=O)N(C)C)c2c1-c1sncc1CC2 ), measured EC50 is 1.7

For this compound ( NC(=O)c1sc(Oc2ccccc2)c2c1CCc1cnsc1-2 ), measured EC50 is 0.00077

For this compound ( CCOCCNC(=O)c1ccc(Oc2sc(C(N)=O)c3c2-c2sncc2CC3)cn1 ), measured EC50 is 0.0015

For this compound ( CS(=O)(=O)c1sc(C(N)=O)c2c1-c1sncc1CC2 ), measured EC50 is 0.22

For this compound ( NC(=O)c1sc(Oc2cccnc2)c2c1CCc1cnsc1-2 ), measured EC50 is 0.003

For this compound ( COCCNC(=O)c1ccc(Oc2sc(C(N)=O)c3c2-c2sncc2CC3)c(C)n1 ), measured EC50 is 0.00035

For this compound ( CSc1sc(C(=O)Nc2ccn(C)n2)c2c1-c1sncc1CC2 ), measured EC50 is 1.4

For this compound ( CNC(=O)c1ccc(Oc2sc(C(N)=O)c3c2-c2sncc2CC3)cn1 ), measured EC50 is 0.0026

For this compound ( CSc1sc(C(N)=O)c2c1-c1[nH]ncc1CC2 ), measured EC50 is 1.3

For this compound ( COc1sc(C(N)=O)c2c1-c1sncc1CC2 ), measured EC50 is 0.0091

For this compound ( Cc1ccncc1Oc1sc(C(N)=O)c2c1-c1sncc1CC2 ), measured EC50 is 0.016

For this compound ( NC(=O)c1sc(Oc2ccccn2)c2c1CCc1cnsc1-2 ), measured EC50 is 0.066

For this compound ( CC(=O)Nc1ccc(Oc2sc(C(N)=O)c3c2-c2sncc2CC3)cn1 ), measured EC50 is 0.0004

For this compound ( CNc1ccc(Oc2sc(C(N)=O)c3c2-c2sncc2CC3)cn1 ), measured EC50 is 0.00058

For this compound ( Cc1cncc(Oc2sc(C(N)=O)c3c2-c2sncc2CC3)c1 ), measured EC50 is 0.028

For this compound ( CSc1sc(C(N)=O)c2c1-c1sncc1CC2 ), measured EC50 is 0.0089

For this compound ( CSc1sc(C(N)=O)c2c1-c1oncc1CC2 ), measured EC50 is 0.2

For this compound ( NC(=O)c1ccc(Oc2sc(C(N)=O)c3c2-c2sncc2CC3)cn1 ), measured EC50 is 0.0014

For this compound ( CSc1sc(C(N)=O)c2c1-c1snnc1CC2 ), measured EC50 is 0.55

For this compound ( CSc1sc(C(=O)Nc2ccccn2)c2c1-c1sncc1CC2 ), measured EC50 is 2.8

For this compound ( COCCNC(=O)c1ccc(Oc2sc(C(N)=O)c3c2-c2sncc2CC3)cn1 ), measured EC50 is 0.0013

For this compound ( C[S+]([O-])c1sc(C(N)=O)c2c1-c1sncc1CC2 (stereo unspecified) ), measured EC50 is 0.07

For this compound ( CSc1sc(C#N)c2c1-c1sncc1CC2 ), measured EC50 is 0.49

For this compound ( CSc1sc(C(=O)Nc2ccsn2)c2c1-c1sncc1CC2 ), measured EC50 is 0.62

For this compound ( Cc1c(Oc2sc(C(N)=O)c3c2-c2sncc2CC3)ccc[n+]1[O-] ), measured EC50 is 0.0083

For this compound ( NC(=O)c1sc(Oc2ccc(N)nc2)c2c1CCc1cnsc1-2 ), measured EC50 is 0.0023

For this compound ( CSc1sc(C(=O)Nc2ccon2)c2c1-c1sncc1CC2 ), measured EC50 is 0.89

For this compound ( CNC(=O)c1sc(SC)c2c1CCc1cnsc1-2 ), measured EC50 is 0.14

For this compound ( CN(C)C(=O)c1ccc(Oc2sc(C(N)=O)c3c2-c2sncc2CC3)cn1 ), measured EC50 is 0.021

For this compound ( Cc1ccc(Oc2sc(C(N)=O)c3c2-c2sncc2CC3)cn1 ), measured EC50 is 0.003
